The origin of these recorded values is patent US20030088061A1.

study target: α2β1 (Homo sapiens, UniProt P05556+P17301)
Construct: endogenous in cells
Sequence (P17301 30-1181): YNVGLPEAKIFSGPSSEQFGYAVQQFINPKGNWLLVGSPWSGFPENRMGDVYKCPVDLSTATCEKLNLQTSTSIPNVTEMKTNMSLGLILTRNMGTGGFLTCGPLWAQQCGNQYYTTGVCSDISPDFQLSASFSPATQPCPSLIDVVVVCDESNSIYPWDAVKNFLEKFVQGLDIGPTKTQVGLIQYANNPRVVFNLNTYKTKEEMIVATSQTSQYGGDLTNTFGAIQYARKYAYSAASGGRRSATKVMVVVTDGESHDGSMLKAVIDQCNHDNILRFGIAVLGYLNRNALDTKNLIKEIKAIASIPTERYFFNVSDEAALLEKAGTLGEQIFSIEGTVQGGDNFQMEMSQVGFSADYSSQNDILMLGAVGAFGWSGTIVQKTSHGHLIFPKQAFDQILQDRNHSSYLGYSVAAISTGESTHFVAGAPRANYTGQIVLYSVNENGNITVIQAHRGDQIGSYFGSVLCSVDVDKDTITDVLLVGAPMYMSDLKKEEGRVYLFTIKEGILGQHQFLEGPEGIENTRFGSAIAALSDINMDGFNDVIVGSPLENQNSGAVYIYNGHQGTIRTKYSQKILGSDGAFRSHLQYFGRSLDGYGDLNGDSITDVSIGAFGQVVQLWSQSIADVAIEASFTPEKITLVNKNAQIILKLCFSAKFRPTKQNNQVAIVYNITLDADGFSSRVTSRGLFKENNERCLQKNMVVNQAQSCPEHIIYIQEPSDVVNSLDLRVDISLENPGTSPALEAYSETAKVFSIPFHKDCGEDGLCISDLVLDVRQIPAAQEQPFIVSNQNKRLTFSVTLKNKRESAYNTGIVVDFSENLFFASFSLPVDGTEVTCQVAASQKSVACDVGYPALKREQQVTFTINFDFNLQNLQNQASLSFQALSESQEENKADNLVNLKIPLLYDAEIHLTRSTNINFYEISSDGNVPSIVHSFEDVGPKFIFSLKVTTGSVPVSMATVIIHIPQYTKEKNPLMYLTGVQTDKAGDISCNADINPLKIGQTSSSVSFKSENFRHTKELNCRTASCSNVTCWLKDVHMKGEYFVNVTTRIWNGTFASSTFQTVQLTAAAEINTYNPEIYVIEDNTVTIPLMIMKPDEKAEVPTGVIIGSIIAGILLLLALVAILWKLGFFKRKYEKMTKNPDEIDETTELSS
Sequence (P05556 21-798 partner): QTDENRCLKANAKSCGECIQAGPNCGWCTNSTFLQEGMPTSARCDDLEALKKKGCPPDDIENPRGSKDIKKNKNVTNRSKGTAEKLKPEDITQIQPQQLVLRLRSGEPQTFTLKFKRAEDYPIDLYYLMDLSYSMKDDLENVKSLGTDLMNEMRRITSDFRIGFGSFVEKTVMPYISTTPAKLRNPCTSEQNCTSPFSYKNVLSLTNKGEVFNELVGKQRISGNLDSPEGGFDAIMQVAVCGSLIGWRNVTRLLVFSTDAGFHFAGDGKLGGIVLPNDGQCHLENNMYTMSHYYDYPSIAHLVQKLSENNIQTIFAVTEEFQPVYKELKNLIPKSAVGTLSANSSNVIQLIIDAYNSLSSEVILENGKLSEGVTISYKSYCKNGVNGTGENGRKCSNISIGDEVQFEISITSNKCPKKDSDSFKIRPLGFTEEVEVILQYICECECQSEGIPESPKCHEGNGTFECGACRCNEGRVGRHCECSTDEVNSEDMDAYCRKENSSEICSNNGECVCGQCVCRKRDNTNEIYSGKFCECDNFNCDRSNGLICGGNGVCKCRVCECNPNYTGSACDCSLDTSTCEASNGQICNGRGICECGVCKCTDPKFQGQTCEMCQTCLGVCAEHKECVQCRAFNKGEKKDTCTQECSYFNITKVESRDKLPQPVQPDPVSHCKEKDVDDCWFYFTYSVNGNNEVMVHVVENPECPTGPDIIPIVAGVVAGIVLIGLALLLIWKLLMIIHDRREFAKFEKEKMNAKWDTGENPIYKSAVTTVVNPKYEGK
experiment description: Jurkat cell adhesion to rat type I collagen
run conditions: Jurkat cells, PMA

{"molecule": "Cl.O=C1CCCN1CCCNCc1ccc(Sc2cccc(Cl)c2Cl)c(Cl)c1", "EC50": "8 µM"}
{"molecule": "CCN1CCN(c2cc(-c3ccc(Sc4ccccc4C(C)C)c(C(F)(F)F)c3)ccn2)CC1.O=C(O)C(F)(F)F.O=C(O)C(F)(F)F", "EC50": "17 µM"}
{"molecule": "O=C(O)C(F)(F)F.O=C(O)C(F)(F)F.c1ccc(Sc2ccc3ccccc3c2)c(CNCCN2CCCC2)c1", "EC50": "9 µM"}
{"molecule": "CN(CCCNCc1ccccc1Sc1cccc(C(F)(F)F)c1)c1ccccc1.O=C(O)C(F)(F)F.O=C(O)C(F)(F)F", "EC50": "9 µM"}
{"molecule": "CSc1ccc(Sc2ccccc2CNCCCN(C)c2ccccc2)cc1.O=C(O)C(F)(F)F.O=C(O)C(F)(F)F", "EC50": "8 µM"}
{"molecule": "CC(C)c1ccc(Sc2ccc(N)cc2Cl)cc1", "EC50": "16 µM"}
{"molecule": "CN1CCCN(C(=O)/C=C/c2ccc(Sc3ccc4c(ccn4C)c3)c(Cl)c2Cl)CC1.O=C(O)C(F)(F)F", "EC50": "4 µM"}
{"molecule": "O=C(O)C(F)(F)F.O=C(O)C(F)(F)F.c1ccc(CN2CCC(NCc3ccccc3Sc3ccc4ccccc4c3)CC2)cc1", "EC50": "6 µM"}
{"molecule": "CN1CCN(C(=O)/C=C/c2ccc(Sc3ccc(Cl)cc3Cl)c(Cl)c2)CC1", "EC50": "15 µM"}
{"molecule": "O=C(/C=C/c1ccc(Sc2ccc(Cl)cc2Cl)c([N+](=O)[O-])c1)N1CCNCC1", "EC50": "14 µM"}
{"molecule": "CC(=O)N1CCN(C(=O)C2CC2c2ccc(Sc3ccccc3C(C)C)c(Cl)c2Cl)CC1 (stereo not shown)", "EC50": "16 µM"}
{"molecule": "Nc1ccc(SCc2ccc(Cl)cc2Cl)c(Cl)c1", "EC50": "8 µM"}
{"molecule": "CN(CCCNCc1ccccc1Sc1ccc2ccccc2c1)c1ccccc1.O=C(O)C(F)(F)F.O=C(O)C(F)(F)F", "EC50": "7 µM"}
{"molecule": "CN(CCCNCc1ccccc1Sc1c(Cl)cccc1Cl)c1ccccc1.O=C(O)C(F)(F)F.O=C(O)C(F)(F)F", "EC50": "2 µM"}
{"molecule": "O=C(/C=C/c1ccc(Sc2cccc(N3CCC(N4CCCC4)CC3)c2)c(Cl)c1Cl)NCCCN1CCCC1=O", "EC50": "8 µM"}
{"molecule": "CN(C)CCCNCc1ccccc1Sc1ccc2ccccc2c1.O=C(O)C(F)(F)F.O=C(O)C(F)(F)F", "EC50": "6 µM"}

----------
study target: αdβ2 (Homo sapiens, UniProt P05107+Q13349)
Construct: expressed in transfected cells; host or cells: JY cells, plasmid pMHneo/aD
experiment description: JY/αdβ2 cell adhesion to VCAM
Format: cell-based
run conditions: PMA-treated JY cells

{"compound": "Nc1ccc(Sc2ccc(NC(=O)CCc3ccccc3)cc2)c(Cl)c1", "IC50": "> 40 µM"}
{"compound": "O=C(NCc1cccnc1)c1ccccc1C(=O)Nc1sc2ccccc2c1Cl", "IC50": "> 40 µM"}
{"compound": "CC(CN(C)C)NCc1ccccc1Sc1ccc(C(C)(C)C)cc1 (stereo not shown)", "IC50": "> 40 µM"}
{"compound": "CC(=O)Oc1ccccc1C(=O)n1c(-c2ccccc2)cc2ccccc21", "IC50": "> 40 µM"}

----------
study target: ftsZ (Escherichia coli)
Sequence (P0A9A6 whole entry): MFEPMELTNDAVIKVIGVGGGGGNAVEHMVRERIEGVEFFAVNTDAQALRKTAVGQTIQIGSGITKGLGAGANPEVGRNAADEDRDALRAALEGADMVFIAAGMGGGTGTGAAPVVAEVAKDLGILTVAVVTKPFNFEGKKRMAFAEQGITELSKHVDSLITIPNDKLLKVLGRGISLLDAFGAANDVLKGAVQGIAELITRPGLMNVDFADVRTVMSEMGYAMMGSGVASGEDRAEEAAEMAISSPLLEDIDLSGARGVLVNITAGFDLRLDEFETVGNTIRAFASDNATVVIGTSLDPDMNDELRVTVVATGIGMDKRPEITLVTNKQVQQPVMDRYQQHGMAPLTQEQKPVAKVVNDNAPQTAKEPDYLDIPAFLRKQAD
experiment description: ftsZ GTPase assay
Format: biochemical

{"query smiles": "Nc1nc2c(ncn2[C@@H]2O[C@H](COP(=O)(O)OP(=O)(O)O)[C@@H](O)[C@H]2O)c(=O)[nH]1", "study target": "ftsZ (Escherichia coli)", "readout unit": "µM", "IC50": 8}

----------
study target: CD11b (Mac-1) (Homo sapiens, UniProt P11215)
Construct: endogenous in cells; host or cells: neutrophils from fresh human blood
experiment description: CD11b-mediated neutrophil adhesion to fibrinogen
Assay type: cell-based
run conditions: after SAR efforts based on Cmpd S; read-out: IC50 (inhibition potency), neutrophil adhesion to fibrinogen
endpoint: IC50

{"compound": "CN(C)CCCCNCc1ccccc1Sc1c(Cl)cccc1Cl [Cmpd AC]", "study target": "CD11b (Mac-1) (Homo sapiens, UniProt P11215)", "endpoint": "IC50", "assay result": "< 200 nM"}
{"compound": "CC(CN(C)C)NCc1ccccc1Sc1ccc(C(C)(C)C)cc1 (centres unmarked) [Cmpd AA]", "study target": "CD11b (Mac-1) (Homo sapiens, UniProt P11215)", "endpoint": "IC50", "assay result": "< 200 nM"}

----------
study target: Rac1 (Homo sapiens)
Construct: GST (cleaved yes)
experiment description: Tiam1-catalyzed guanine nucleotide exchange of Rac1
run conditions: in the presence of Tiam1; read-out: IC50, Rac1 guanine nucleotide exchange reaction

{"query smiles": "CC(C)Sc1ccc(-c2ccnc(N3CCCC(C)(C)C3)c2)cc1C(F)(F)F", "study target": "Rac1 (Homo sapiens)", "readout unit": "µM", "IC50": 4.7}
{"query smiles": "CN(CCCNCc1ccccc1Sc1c(Cl)cccc1Cl)c1ccccc1", "study target": "Rac1 (Homo sapiens)", "readout unit": "µM", "IC50": 1.9}
{"query smiles": "CC(C)Sc1ccc(-c2ccnc(N3CCC(NC(=O)OC(C)(C)C)CC3)c2)cc1C(F)(F)F", "study target": "Rac1 (Homo sapiens)", "readout unit": "µM", "IC50": 5}
{"query smiles": "CN(CCCNCc1ccccc1Sc1cc(Cl)cc(Cl)c1)c1ccccc1", "study target": "Rac1 (Homo sapiens)", "readout unit": "µM", "IC50": 3.1}
{"query smiles": "CSc1ccc(-c2ccnc(N3CCC(C)CC3)c2)cc1C(C)(F)F", "study target": "Rac1 (Homo sapiens)", "readout unit": "µM", "IC50": 3.5}

----------
study target: αVβ3 (Homo sapiens, UniProt P05106+P06756)
Construct: endogenous in cells
Sequence (P06756 31-889 limits assumed): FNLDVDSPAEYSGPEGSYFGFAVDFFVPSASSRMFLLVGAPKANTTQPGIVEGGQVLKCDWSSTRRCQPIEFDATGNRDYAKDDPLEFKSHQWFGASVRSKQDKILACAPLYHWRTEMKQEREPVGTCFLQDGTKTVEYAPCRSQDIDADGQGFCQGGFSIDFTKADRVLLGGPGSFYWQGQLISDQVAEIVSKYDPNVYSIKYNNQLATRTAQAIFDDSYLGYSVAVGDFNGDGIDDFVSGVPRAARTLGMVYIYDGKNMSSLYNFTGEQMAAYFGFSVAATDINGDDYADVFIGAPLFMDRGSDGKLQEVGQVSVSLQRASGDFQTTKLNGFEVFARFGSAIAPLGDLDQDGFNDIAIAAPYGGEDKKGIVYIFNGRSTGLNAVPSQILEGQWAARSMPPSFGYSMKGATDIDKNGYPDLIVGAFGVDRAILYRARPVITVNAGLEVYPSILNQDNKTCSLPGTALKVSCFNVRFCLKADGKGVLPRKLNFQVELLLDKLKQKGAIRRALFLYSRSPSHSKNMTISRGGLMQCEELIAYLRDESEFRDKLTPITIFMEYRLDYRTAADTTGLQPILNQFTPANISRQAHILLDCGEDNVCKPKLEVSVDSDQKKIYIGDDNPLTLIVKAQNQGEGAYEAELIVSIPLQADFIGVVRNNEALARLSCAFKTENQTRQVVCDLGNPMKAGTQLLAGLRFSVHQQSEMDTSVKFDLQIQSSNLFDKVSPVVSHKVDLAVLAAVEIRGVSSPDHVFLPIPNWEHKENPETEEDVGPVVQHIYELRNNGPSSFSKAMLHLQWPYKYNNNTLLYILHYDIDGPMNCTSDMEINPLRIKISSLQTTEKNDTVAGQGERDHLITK
Sequence (P06756 891-1048 partner limits assumed): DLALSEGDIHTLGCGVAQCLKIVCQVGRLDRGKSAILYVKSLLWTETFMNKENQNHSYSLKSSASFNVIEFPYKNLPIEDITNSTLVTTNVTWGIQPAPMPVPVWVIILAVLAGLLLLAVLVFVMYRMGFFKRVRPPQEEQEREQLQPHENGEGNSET
Sequence (P05106 27-788): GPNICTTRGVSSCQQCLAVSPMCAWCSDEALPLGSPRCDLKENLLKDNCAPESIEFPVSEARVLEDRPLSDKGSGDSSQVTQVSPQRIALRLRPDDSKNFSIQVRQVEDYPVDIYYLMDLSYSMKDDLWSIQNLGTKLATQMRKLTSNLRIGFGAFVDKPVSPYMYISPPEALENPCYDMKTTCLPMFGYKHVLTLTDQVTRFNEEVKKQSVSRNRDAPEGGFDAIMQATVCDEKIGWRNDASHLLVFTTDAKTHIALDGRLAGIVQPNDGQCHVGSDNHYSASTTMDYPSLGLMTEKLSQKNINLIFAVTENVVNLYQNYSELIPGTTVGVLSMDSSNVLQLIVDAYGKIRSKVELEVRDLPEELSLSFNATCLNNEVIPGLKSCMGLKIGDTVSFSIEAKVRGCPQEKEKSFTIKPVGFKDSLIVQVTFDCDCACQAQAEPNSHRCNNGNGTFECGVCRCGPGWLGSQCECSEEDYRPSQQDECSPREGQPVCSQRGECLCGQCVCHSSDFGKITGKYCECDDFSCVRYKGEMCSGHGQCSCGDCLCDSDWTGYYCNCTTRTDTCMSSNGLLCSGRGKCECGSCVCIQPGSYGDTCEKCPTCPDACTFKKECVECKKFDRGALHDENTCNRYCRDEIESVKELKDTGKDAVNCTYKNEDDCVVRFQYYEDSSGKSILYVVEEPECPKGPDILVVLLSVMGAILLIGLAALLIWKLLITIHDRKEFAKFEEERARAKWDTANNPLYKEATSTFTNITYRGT
experiment description: JY/αVβ3 cell adhesion to vitronectin
run conditions: PMA-treated JY cells; read-out: VN αVβ3 IC50
pIC50: −log10 of the molar value.

{"query smiles": "O=C(NCc1cccnc1)c1ccccc1C(=O)Nc1sc2ccccc2c1Cl", "pIC50": 5.22}
{"query smiles": "Nc1ccc(Sc2ccc(NC(=O)CCc3ccccc3)cc2)c(Cl)c1", "pIC50": 5.10}
{"query smiles": "CC(=O)Oc1ccccc1C(=O)n1c(-c2ccccc2)cc2ccccc21", "pIC50": 5.40}

----------
System: Jurkat cells
experiment description: Jurkat cell toxicity (CellTiter 96 Aqueous One Solution)
Assay type: cell-based
run conditions: four hr or 24 hr incubation
Mark condition met for TOXICITY LD50 under 30 µM, condition not met if at or over.

{"compound": "CSc1ccc(Sc2ccccc2CNCCCN(C)c2ccccc2)cc1.O=C(O)C(F)(F)F.O=C(O)C(F)(F)F", "label": "condition met"}
{"compound": "CC(C)(C)c1ccc(Sc2ccccc2CNCCN2CCCC2)cc1.O=C(O)C(F)(F)F.O=C(O)C(F)(F)F", "label": "condition not met"}
{"compound": "CN(CCCNCc1ccccc1Sc1cccc(C(F)(F)F)c1)c1ccccc1.O=C(O)C(F)(F)F.O=C(O)C(F)(F)F", "label": "condition not met"}
{"compound": "O=C(O)C(F)(F)F.O=C(O)C(F)(F)F.c1ccc(CN2CCC(NCc3ccccc3Sc3ccc4ccccc4c3)CC2)cc1", "label": "condition not met"}
{"compound": "CN(C)CCCNCc1ccccc1Sc1ccc2ccccc2c1.O=C(O)C(F)(F)F.O=C(O)C(F)(F)F", "label": "condition not met"}
{"compound": "Cl.O=C1CCCN1CCCNCc1ccc(Sc2cccc(Cl)c2Cl)c(Cl)c1", "label": "condition met"}
{"compound": "O=C(/C=C/c1ccc(Sc2ccc3c(c2)OCCO3)c([N+](=O)[O-])c1)N1CCNCC1", "label": "condition not met"}
{"compound": "CN(CCCNCc1ccccc1Sc1c(Cl)cccc1Cl)c1ccccc1.O=C(O)C(F)(F)F.O=C(O)C(F)(F)F", "label": "condition met"}
{"compound": "O=C(O)C(F)(F)F.O=C(O)C(F)(F)F.c1ccc(Sc2ccc3ccccc3c2)c(CNCCN2CCCC2)c1", "label": "condition not met"}
{"compound": "CN1CCN(C(=O)/C=C/c2ccc(Sc3ccc(Cl)cc3Cl)c(Cl)c2)CC1", "label": "condition not met"}
{"compound": "FC(F)(F)Oc1ccc(Sc2ccccc2CNC2CCN(Cc3ccccc3)CC2)cc1.O=C(O)C(F)(F)F.O=C(O)C(F)(F)F", "label": "condition not met"}
{"compound": "CCN1CCN(c2cc(-c3ccc(Sc4ccccc4C(C)C)c(C(F)(F)F)c3)ccn2)CC1.O=C(O)C(F)(F)F.O=C(O)C(F)(F)F", "label": "condition not met"}
{"compound": "CCN1CCCC1CNCc1ccccc1Sc1ccc2ccccc2c1.O=C(O)C(F)(F)F.O=C(O)C(F)(F)F (stereo not shown)", "label": "condition not met"}
{"compound": "CC(C)c1ccc(Sc2ccc(N)cc2Cl)cc1", "label": "condition not met"}
